biological target: KRAS G12D (Homo sapiens (Human), UniProt P01116+P62937, G12D); assay: Ras-Raf (BRAF RBD) disruption / FRET / MOA assay, KRAS G12D; assay type: biochemical; details: Ras-Raf disruption/FRET/MOA assay; class symbols; read-out: KRAS G12D FRET data IC50
Sequence (P01116-2 other isoform, or with tags, fused parts or gaps G12D): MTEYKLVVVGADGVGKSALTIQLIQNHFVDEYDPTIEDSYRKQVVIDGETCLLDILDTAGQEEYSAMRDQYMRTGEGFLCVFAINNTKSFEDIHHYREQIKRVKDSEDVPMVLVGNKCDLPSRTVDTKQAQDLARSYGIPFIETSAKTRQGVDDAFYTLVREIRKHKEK
Sequence (P62937 whole entry): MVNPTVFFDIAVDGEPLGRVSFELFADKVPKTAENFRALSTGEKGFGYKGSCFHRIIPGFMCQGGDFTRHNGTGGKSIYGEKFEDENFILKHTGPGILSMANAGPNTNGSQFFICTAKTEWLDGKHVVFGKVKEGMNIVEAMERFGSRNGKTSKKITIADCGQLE
measuredMetric: IC50

* C=CC(=O)N1CC[C@H](C(=O)N(C)[C@H](C(=O)N[C@H]2Cc3cc(O)cc(c3)-c3ccc4c(c3)c(c(-c3cnccc3[C@H](C)OC)n4CC)CC(C)(C)COC(=O)[C@@H]3CCCN(N3)C2=O)C(C)C)C1 [Example A112] | > 10000 nM
* C=CC(=O)N1CCOC2(CCN(C(=O)N(C)[C@H](C(=O)N[C@H]3Cc4cc(CF)cc(c4)-c4ccc5c(c4)c(c(-c4cccnc4[C@H](C)OC)n5CC(F)(F)F)CC(C)(C)COC(=O)[C@@H]4CCCN(N4)C3=O)C(C)C)CC2)C1 (atropisomer, axis not shown) | 100 to 1000 nM
